measurement-target: SARS-CoV-2 nsp14 (Severe acute respiratory syndrome coronavirus 2, UniProt P0DTD1)
test-name: biochemical
condition-parameters: 100 μM
Listed next: entries and their corresponding Percent inhibition at 100 μM, nsp14.
Note: unit % is implicit; provide only the numeric part.

Check out these entries, answers already filled in.
Value of measured Percent inhibition at 100 μM, nsp14 for the entry Cc1cc(=O)[nH]c(NCCNC(=O)c2cc(-c3cccn3C)n[nH]2)n1 : 9

What the record says about Cc1cc(=O)n2c(n1)NC(N1CCOCC1)=NC2c1ccccc1 (stereo not drawn) : Percent inhibition at 100 μM, nsp14 is -14

Reported Percent inhibition at 100 μM, nsp14 of NC(=O)CC[C@H](N)C(=O)NS(=O)(=O)OC[C@H]1O[C@@H](n2cnc3c(N)ncnc32)[C@H](O)[C@@H]1O : 20

// Percent inhibition at 100 μM, nsp14 value for CC(C)CC(C(=O)OCC(=O)Nc1cccc(Cl)c1)N1C(=O)C2CC=CCC2C1=O (stereo not drawn) : 8

Documented Percent inhibition at 100 μM, nsp14 of CC(=O)c1cnc(NC(C)c2nnc(CC(=O)O)[nH]2)nc1C (stereo not drawn) : 16

The reported Percent inhibition at 100 μM, nsp14 of the compound NC1=NC(c2ccccc2)n2c(nc(=O)c3ccccc32)N1 (stereo not drawn) was 19

Others:
Cc1ncsc1CCC(=O)N1CCCC(C(=O)c2ccc3c4c(cccc24)CC3)C1 (stereo not drawn) has a reported Percent inhibition at 100 μM, nsp14 of 9

Just so you know, measured Percent inhibition at 100 μM, nsp14 for Cc1[nH]c(-c2ccccc2)nc1C(=O)NCc1ccc2[nH]c(=O)[nH]c2c1 came out at 19

What the record says about O=C(CCCn1cnc2ccccc2c1=O)Nc1ccc2ncnc(O)c2c1 : Percent inhibition at 100 μM, nsp14 is 28
